Assignment: determine reported composite z-score for the given compounds.
- procedureText: binders of probe aFSTL3 on microarray, primary screen, stem cell growth factor project, biochemical, small-molecule microarray, fluorescence 635/667 (AID 1064);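 also: measures binding of the biotinylated anti-FSTL3 antibody to printed compounds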
- experimentalSetup: higher = more signal
One number for each entry.

Study these solved cases before continuing.
compound | composite z-score
C=C(CCCC)/C(=C/C[C@H](OC(C)=O)c1cccc(OCCO)c1)c1cc(C(=O)OC)ccc1OC | 0.0336
CC(=O)c1ccc(C(O)C2C=CC3C(=O)NC(=O)C3N2Nc2ccc(Cl)cc2Cl)cc1 (stereo not drawn) | 0.863
COCCOC(=O)N1C(=O)[C@@]2(c3cc(C#CC4(O)CCCCCC4)ccc31)[C@H](C(=O)NC[C@H](O)c1ccccc1)[C@H]1C(=O)O[C@H](c3ccccc3)[C@H](c3ccccc3)N1[C@@H]2c1ccc(O)cc1 | -0.0443
COCCCN1C(=O)[C@@]2(Cc3ccccc31)c1ccccc1C(=O)N(Cc1ccccc1OC)[C@H]2c1ccc(CO)cc1 | 0.303

Dear colleague, could you please provide composite z-score for the compounds listed below?
1. COCCOC(=O)N1C(=O)[C@@]2(c3cc(C#CC4(O)CCCCCC4)ccc31)[C@H](C(=O)N1CCc3cc(OC)c(OC)cc3C1)[C@H]1C(=O)O[C@H](c3ccccc3)[C@H](c3ccccc3)N1[C@@H]2c1ccc(O)cc1
2. COC(=O)C(CC#Cc1ccc2c(c1)[C@]1(C(=O)N2)[C@H](c2ccc(O)cc2)N2[C@H](c3ccccc3)[C@H](c3ccccc3)OC(=O)[C@H]2[C@@H]1C(=O)N1CCc2cc(OC)c(OC)cc2C1)C(=O)OC
3. COCCOC(=O)N1C(=O)[C@@]2(c3cc(C#Cc4ccc(OC)cc4)ccc31)[C@H](C(=O)Nc1nc3ccccc3s1)[C@H]1C(=O)O[C@H](c3ccccc3)[C@H](c3ccccc3)N1[C@@H]2c1ccccc1OCCO
4. COCCOC(=O)N1C(=O)[C@@]2(c3cc(C#CCC(C(=O)OC)C(=O)OC)ccc31)[C@H](c1ccc(OCCO)cc1)N1[C@H](c3ccccc3)[C@H](c3ccccc3)OC(=O)[C@H]1[C@@H]2C(=O)N1CCCCCCC1

1: -0.277; 2: -0.312; 3: -0.233; 4: 3.74
